Tested on: Saccharomyces cerevisiae
test.description: fraction of cells in G1 phase (DNA content, flow cytometry); higher = more cells with unreplicated DNA (G1 delay)
test.conditions: temperature: 30 C; YPD; JTY2953 pdr5 snq2 (sensitized); drug added to: cultures diluted from stationary phase; 6-7 h
Counter-ions that a name gives are not always drawn.
The following molecules are listed with their measured fraction of cells in G1 phase values.
Please state the value as a number alone, without comment.

{"columns": ["molecule", "fraction of cells in G1 phase"],
 "data": [
  ["COC(=O)C1=C(C)NC(C)=C(C(=O)OCCCN2CCC(c3ccccc3)(c3ccccc3)CC2)[C@H]1c1cccc([N+](=O)[O-])c1 [Niguldipine HCl] (30.9502 µM)", 0.684],
  ["C[N+](C)(C)CCOC(N)=O [Carbamylcholine Cl] (135.871 µM)", 0.506],
  ["Cc1cnc(C(=O)O)c[n+]1[O-] [Acipimox] (129.764 µM)", 0.493],
  ["O=C(CCCN1CCN(c2ccccn2)CC1)c1ccc(F)cc1 [Azaperone] (61.0864 µM)", 0.582],
  ["CCOC(=O)OC(C)OC1=C(C(=O)Nc2ccccn2)N(C)S(=O)(=O)c2ccccc21 (stereo unspecified) [Ampiroxicam] (44.6957 µM)", 0.5]
]}

Query :: Given the entry O=C1CN2Cc3c(ccc(Cl)c3Cl)N=C2N1 [Anagrelide] (78.0967 µM) , report its measured fraction of cells in G1 phase.
Result :: 0.469

Query :: Next record, please: NC(=O)N1c2ccccc2CC(=O)c2ccccc21 [Oxcarbazepine] (79.2785 µM)
Result :: 0.503

* * *

The following molecules are listed with their measured fraction of cells in G1 phase values.
System: Saccharomyces cerevisiae
test.description: fraction of cells in G1 phase (DNA content, flow cytometry); higher = more cells with unreplicated DNA (G1 delay)
test.conditions: temperature: 30 C; YPD; JTY2953 pdr5 snq2 (sensitized); drug added to: cultures diluted from stationary phase; 6-7 h
Structures can show the parent of a compound that is named as a salt.
Please state the value as a number alone, without comment.

Study these solved cases before continuing.
{"columns": ["molecule", "tgt", "fraction of cells in G1 phase"],
 "data": [
  ["c1ccc([C@H]2CN3CCSC3=N2)cc1 [Levamisole HCl] (97.8973 µM)", "Saccharomyces cerevisiae", 0.488],
  ["O=c1[nH]c(=O)n(C2CCCO2)cc1F (stereo not drawn) [Ftorafur] (99.9146 µM)", "Saccharomyces cerevisiae", 0.512]
]}

Query :: Given the entry O=C(O[C@@H]1C[C@@H]2C[C@H]3C[C@H](C1)N2CC3=O)c1c[nH]c2ccccc12 [Dolasetron] (61.6555 µM) , report its measured fraction of cells in G1 phase.
Result :: 0.494

Query :: Next record, please: CCOC(=O)[C@H](CCc1ccccc1)N[C@@H](C)C(=O)N1Cc2ccccc2C[C@H]1C(=O)O [Quinapril HCl] (45.6071 µM)
Result :: 0.482

Query :: Next record, please: CCN[C@H]1C[C@H](C)S(=O)(=O)c2sc(S(N)(=O)=O)cc21 [Dorzolamide] (61.6443 µM)
Result :: 0.499

Query :: Next record, please: Cc1nc2c([nH]1)c(=O)n(C)c(=O)n2Cc1ccco1 [Furafylline] (76.8479 µM)
Result :: 0.463

Query :: Next record, please: CN(CCOc1ccc(NS(C)(=O)=O)cc1)CCc1ccc(NS(C)(=O)=O)cc1 [Dofetilide] (45.2927 µM)
Result :: 0.551

Query :: Next record, please: NNC(=O)c1ccncc1 [Isoniazid] (145.834 µM)
Result :: 0.518

Query :: Next record, please: Cc1ccc(NC(=O)c2ccc(CN3CCN(C)CC3)cc2)cc1Nc1nccc(-c2cccnc2)n1 [Imatinib] (40.5173 µM)
Result :: 0.52
